B1: tRNA (parent)
chain: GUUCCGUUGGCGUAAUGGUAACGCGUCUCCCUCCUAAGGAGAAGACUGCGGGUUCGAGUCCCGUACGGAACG

variants of: B1; test: yeast fitness, log relative to wild type (ln ratio); higher = fitter; tRNA-Arg(CCU), competitive growth, 37 C, 1 M NaCl
Classify as follows. Reported yeast fitness (ln) greater than or equal to -0.2: True. Reported yeast fitness (ln) below: False.

Reference set, count: 6
1. G1A G6U C27U A43C C46U C66U : False
2. G1A U2G G6U C27U A70U C71U : False
3. G1A U2G G6A C27U A43C C46U A70U : False
4. G6A C27U C46U C66U A69G C71U : False
5. G1A G6U C27U C46U C66U A69G C71U : False
6. G1A U2C G6U C66U A69G A70G : False

Input line: Would you say U2C A43C A69G C71U shows yeast fitness (ln) at minimum -0.2?
Output line: True

Input line: Entry U2G G6U A43C C46U C66A A69G A70G : is its yeast fitness (ln) no less than -0.2?
Output line: False

Input line: Could you verify whether the entry U2C G6U C27U A43C A69G A70G shows yeast fitness (ln) of no less than -0.2?
Output line: False

Input line: Could you verify whether the entry U2C C66A A70G shows yeast fitness (ln) of no less than -0.2?
Output line: True
